- Measurement description: Odour Detection Threshold (ODT) / odour threshold
Observed property: log10 of Odour threshold (log10 of the value in ng/L air)
Please interpret these as log10 of Odour threshold where Odour threshold is in ng/L air.

Recorded log10 of Odour threshold for `CC(C)=Cc1ccc2c(c1)OCC(=O)CO2` , please?
-0.38

---

- Measurement description: Odour Detection Threshold (ODT) / odour threshold
- Reported conditions: Odour Detection Threshold, table of compounds of Formula I
Observed property: ODT (ng/L)
Expressed in ng/L, but write only the number.

CCC(C)/C=C/c1ccc2c(c1)OCC(=O)CO2 (centres unmarked) [Example 8] : 0.021
CC(C)=Cc1ccc2c(c1)OCC(=O)CO2 [Example 7] : 0.42
CC/C=C/c1ccc2c(c1)OCC(=O)CO2 [Example 1] : 0.00157
CC(C)/C=C/c1ccc2c(c1)OCC(=O)CO2 [Example 3] : 0.015
C/C=C/C=C/c1ccc2c(c1)OCC(=O)CO2 [Example 4] : 0.000141

Recorded ODT for CCC/C=C/c1ccc2c(c1)OCC(=O)CO2 [Example 5] , please?
0.00314

Recorded ODT for CC(C)(C)C/C=C/c1ccc2c(c1)OCC(=O)CO2 [Example 6] , please?
0.042

Recorded ODT for CC(C)C/C=C/c1ccc2c(c1)OCC(=O)CO2 [Example 2] , please?
0.00025

All figures here come from patent US20120309670A1.
